Tested on: Streptococcus pyogenes SSI-9
Protocol Description: Antibacterial activity assay of bead-derived peptides (three concentrations)
Type: cell-based
Design: key: +++: inhibition by the 640-fold diluted peptide solution; ++: inhibition by the 160-fold diluted solution; +: inhibition by the 40-fold diluted solution; -: no inhibition
Condition Details: S. pyogenes, bead-derived peptide solution, three concentrations
Where a SMILES comes first, the peptide text is derived from it. [ ]: non-standard residue; d: D form. The star is where a group is joined. NHCH2CH2OH = OCCN*; For = O=C*
Observation Type: antibacterial activity

[
  {
    "Compound": "CNC(=O)C[C@@H](NC(=O)[C@@H](NC(=O)[C@H](NC(=O)[C@H](C)NC(=O)[C@H](NC(=O)[C@H](C)NC(=O)CNC(=O)[C@@H](NC=O)C(C)C)C(C)C)C(C)C)C(C)C)C(=O)N[C@@H](Cc1c[nH]c2ccccc12)C(=O)N[C@H](CC(C)C)C(=O)N[C@@H](Cc1c[nH]c2ccccc12)C(=O)N[C@H](CC(C)C)C(=O)N[C@@H](Cc1c[nH]c2ccccc12)C(=O)N[C@@H](C(=O)N[C@@H](Cc1c[nH]c2ccccc12)C(=O)NCCO)C(C)C [compound 5771] (For-VGA[dV]A[dV]V[dD](NHMe)W[dL]W[dL]W[dV]W-NHCH2CH2OH)",
    "Result": "-"
  },
  {
    "Compound": "CC(C)C[C@@H](NC(=O)[C@@H](NC(=O)[C@H](NC(=O)[C@H](C)NC(=O)[C@H](NC(=O)[C@H](C)NC(=O)CNC(=O)[C@@H](NC=O)C(C)C)[C@H](C)O)C(C)C)C(C)C)C(=O)N[C@@H](Cc1c[nH]c2ccccc12)C(=O)N[C@@H](C(=O)N[C@@H](Cc1c[nH]c2ccccc12)C(=O)N[C@@H](C(=O)N[C@@H](Cc1c[nH]c2ccccc12)C(=O)N[C@@H](C(=O)N[C@@H](Cc1c[nH]c2ccccc12)C(=O)NCCO)C(C)C)C(C)C)C(C)C [compound 9799] (For-VGA[dT]A[dV]V[dL]W[dV]W[dV]W[dV]W-NHCH2CH2OH)",
    "Result": "-"
  }
]

---

Tested on: Streptococcus pyogenes SSI-9
Protocol Description: Antibacterial activity assay of bead-derived peptides (three concentrations)
Assay type: cell-based
Design: key: +++: inhibition by the 640-fold diluted peptide solution; ++: inhibition by the 160-fold diluted solution; +: inhibition by the 40-fold diluted solution; -: no inhibition
Condition Details: S. pyogenes, bead-derived peptide solution, three concentrations
Where a SMILES comes first, the peptide text is derived from it. [ ]: non-standard residue; d: D form. The star is where a group is joined. NHCH2CH2OH = OCCN*; For = O=C*
Observation Type: antibacterial activity

Study these solved cases before continuing.
[
  {
    "Compound": "CNC(=O)C[C@@H](NC(=O)[C@@H](NC(=O)[C@H](NC(=O)[C@H](C)NC(=O)[C@@H](CC(C)C)NC(=O)[C@H](C)NC(=O)CNC(=O)[C@@H](NC=O)C(C)C)C(C)C)C(C)C)C(=O)N[C@@H](Cc1c[nH]c2ccccc12)C(=O)N[C@@H](C(=O)N[C@@H](Cc1c[nH]c2ccccc12)C(=O)N[C@@H](C(=O)N[C@@H](Cc1c[nH]c2ccccc12)C(=O)N[C@H](CC(C)C)C(=O)N[C@@H](Cc1c[nH]c2ccccc12)C(=O)NCCO)C(C)C)C(C)C [compound 3596] (For-VGA[dL]A[dV]V[dD](NHMe)W[dV]W[dV]W[dL]W-NHCH2CH2OH)",
    "antibacterial activity": "-"
  },
  {
    "Compound": "CC(C)C[C@@H](NC(=O)[C@H](C)NC(=O)CNC(=O)[C@@H](NC=O)C(C)C)C(=O)N[C@@H](C)C(=O)N[C@@H](C(=O)N[C@H](C(=O)N[C@H](CC(C)C)C(=O)N[C@@H](Cc1c[nH]c2ccccc12)C(=O)N[C@H](CC(C)C)C(=O)N[C@@H](Cc1c[nH]c2ccccc12)C(=O)N[C@H](CC(C)C)C(=O)N[C@@H](Cc1c[nH]c2ccccc12)C(=O)N[C@H](CC(C)C)C(=O)N[C@@H](Cc1c[nH]c2ccccc12)C(=O)NCCO)C(C)C)C(C)C [compound 8397] (For-VGA[dL]A[dV]V[dL]W[dL]W[dL]W[dL]W-NHCH2CH2OH)",
    "antibacterial activity": "+"
  },
  {
    "Compound": "CC(C)C[C@@H](NC(=O)[C@H](C)NC(=O)CNC(=O)[C@@H](NC=O)C(C)C)C(=O)N[C@@H](C)C(=O)N[C@@H](C(=O)N[C@H](C(=O)N[C@@H](C(=O)N[C@@H](Cc1c[nH]c2ccccc12)C(=O)N[C@@H](C(=O)N[C@@H](Cc1c[nH]c2ccccc12)C(=O)N[C@H](CC(C)C)C(=O)N[C@@H](Cc1c[nH]c2ccccc12)C(=O)N[C@@H](C(=O)N[C@@H](Cc1c[nH]c2ccccc12)C(=O)NCCO)C(C)C)C(C)C)C(C)C)C(C)C)C(C)C [compound 4884] (For-VGA[dL]A[dV]V[dV]W[dV]W[dL]W[dV]W-NHCH2CH2OH)",
    "antibacterial activity": "++"
  },
  {
    "Compound": "CC(C)C[C@@H](NC(=O)[C@H](C)NC(=O)CNC(=O)[C@@H](NC=O)C(C)C)C(=O)N[C@@H](C)C(=O)N[C@H](CC(C)C)C(=O)N[C@H](C(=O)N[C@H](CC(C)C)C(=O)N[C@@H](Cc1c[nH]c2ccccc12)C(=O)N[C@H](CC(C)C)C(=O)N[C@@H](Cc1c[nH]c2ccccc12)C(=O)N[C@H](CC(C)C)C(=O)N[C@@H](Cc1c[nH]c2ccccc12)C(=O)N[C@@H](C(=O)N[C@@H](Cc1c[nH]c2ccccc12)C(=O)NCCO)C(C)C)C(C)C [compound 6639] (For-VGA[dL]A[dL]V[dL]W[dL]W[dL]W[dV]W-NHCH2CH2OH)",
    "antibacterial activity": "+"
  }
]

## Input So what's the measured antibacterial activity for this one? CC(C)C[C@@H](NC(=O)[C@H](C)NC(=O)CNC(=O)[C@@H](NC=O)C(C)C)C(=O)N[C@@H](C)C(=O)N[C@H](CC(C)C)C(=O)N[C@H](C(=O)N[C@H](CC(C)C)C(=O)N[C@@H](Cc1c[nH]c2ccccc12)C(=O)N[C@@H](C(=O)N[C@@H](Cc1c[nH]c2ccccc12)C(=O)N[C@H](CC(C)C)C(=O)N[C@@H](Cc1c[nH]c2ccccc12)C(=O)N[C@H](CC(C)C)C(=O)N[C@@H](Cc1c[nH]c2ccccc12)C(=O)NCCO)C(C)C)C(C)C [compound 11198] (For-VGA[dL]A[dL]V[dL]W[dV]W[dL]W[dL]W-NHCH2CH2OH)
## Output -
